- experiment: Induction of GK translocation from nucleus to cytoplasm of mouse hepatocytes preincubated for 20 mins followed by glucose challenge measured after 40 mins by Hoechst 33342 staining-based assay
Below, each entry is listed alongside its reported EC50.

entry smiles: CC(C)(O)C#Cc1cc(C(O)(C(F)(F)F)C(F)(F)F)cnc1N1CCN(S(=O)(=O)c2ccc(N)nc2)CC1
qualifier symbol: =
EC50 (µM): 2.14

entry smiles: Nc1ccc(S(=O)(=O)N2CCN(c3ncc(C(O)(C(F)(F)F)C(F)(F)F)cc3C#CCCO)CC2)cn1
qualifier symbol: =
EC50 (µM): 2

entry smiles: Nc1ccc(S(=O)(=O)N2CCN(c3ncc(C(O)(C(F)(F)F)C(F)(F)F)cc3-c3cc[nH]n3)CC2)cn1
qualifier symbol: =
EC50 (µM): 11.2

entry smiles: CC(C)n1cc(-c2cc(C(O)(C(F)(F)F)C(F)(F)F)cnc2N2CCN(S(=O)(=O)c3ccc(N)nc3)CC2)cn1
qualifier symbol: =
EC50 (µM): 1.08

entry smiles: Nc1ccc(S(=O)(=O)N2CCN(c3ncc(C(O)(C(F)(F)F)C(F)(F)F)cc3-c3ccccc3F)CC2)cn1
qualifier symbol: =
EC50 (µM): 0.803

entry smiles: CN1C(=O)Cc2cc(-c3cc(C(O)(C(F)(F)F)C(F)(F)F)cnc3N3CCN(S(=O)(=O)c4ccc(N)nc4)CC3)ccc21
qualifier symbol: =
EC50 (µM): 0.234

entry smiles: Nc1ccc(S(=O)(=O)N2CCN(c3ncc(C(O)(C(F)(F)F)C(F)(F)F)cc3C#CCO)CC2)cn1
qualifier symbol: =
EC50 (µM): 0.51

entry smiles: Cc1ccc(-c2cc(C(O)(C(F)(F)F)C(F)(F)F)cnc2N2CCN(S(=O)(=O)c3ccc(N)nc3)CC2)cn1
qualifier symbol: =
EC50 (µM): 4.68

entry smiles: NC(=O)c1cccc(-c2cc(C(O)(C(F)(F)F)C(F)(F)F)cnc2N2CCN(S(=O)(=O)c3ccc(N)nc3)CC2)c1
qualifier symbol: =
EC50 (µM): 0.766

entry smiles: Nc1ccc(S(=O)(=O)N2CCN(c3ncc(C(O)(C(F)(F)F)C(F)(F)F)cc3-c3cc4ccccc4[nH]3)CC2)cn1
qualifier symbol: =
EC50 (µM): 1.12

entry smiles: CC(C)(C)n1cc(-c2cc(C(O)(C(F)(F)F)C(F)(F)F)cnc2N2CCN(S(=O)(=O)c3ccc(N)nc3)CC2)cn1
qualifier symbol: =
EC50 (µM): 2.45

entry smiles: Nc1ccc(S(=O)(=O)N2CCN(c3ncc(C(O)(C(F)(F)F)C(F)(F)F)cc3-c3ccccc3)CC2)cn1
qualifier symbol: =
EC50 (µM): 0.776

entry smiles: Nc1ccc(S(=O)(=O)N2CCN(c3ncc(C(O)(C(F)(F)F)C(F)(F)F)cc3-c3ccc4ocnc4c3)CC2)cn1
qualifier symbol: =
EC50 (µM): 0.416

entry smiles: CS(=O)(=O)c1ccc(-c2cc(C(O)(C(F)(F)F)C(F)(F)F)cnc2N2CCN(S(=O)(=O)c3ccc(N)nc3)CC2)cc1
qualifier symbol: =
EC50 (µM): 2.95

entry smiles: Cc1c(-c2cc(C(O)(C(F)(F)F)C(F)(F)F)cnc2N2CCN(S(=O)(=O)c3ccc(N)nc3)CC2)cnn1C
qualifier symbol: =
EC50 (µM): 1.26

entry smiles: Nc1ccc(S(=O)(=O)N2CCN(c3ncc(C(O)(C(F)(F)F)C(F)(F)F)cc3-c3ccccc3O)CC2)cn1
qualifier symbol: =
EC50 (µM): 0.565

entry smiles: Nc1ccc(S(=O)(=O)N2CCN(c3ncc(C(O)(C(F)(F)F)C(F)(F)F)cc3Br)CC2)cn1
qualifier symbol: =
EC50 (µM): 5.37

entry smiles: COc1ccc(-c2cc(C(O)(C(F)(F)F)C(F)(F)F)cnc2N2CCN(S(=O)(=O)c3ccc(N)nc3)CC2)cn1
qualifier symbol: =
EC50 (µM): 1.4

entry smiles: Cc1nc2cc(-c3cc(C(O)(C(F)(F)F)C(F)(F)F)cnc3N3CCN(S(=O)(=O)c4ccc(N)nc4)CC3)ccc2o1
qualifier symbol: =
EC50 (µM): 0.351

entry smiles: Nc1ccc(S(=O)(=O)N2CCN(c3ncc(C(O)(C(F)(F)F)C(F)(F)F)cc3-c3ccc4[nH]ncc4c3)CC2)cn1
qualifier symbol: =
EC50 (µM): 2.63

entry smiles: Nc1ccc(S(=O)(=O)N2CCN(c3ncc(C(O)(C(F)(F)F)C(F)(F)F)cc3-c3ccc4c(c3)CC(=O)N4)CC2)cn1
qualifier symbol: =
EC50 (µM): 0.309

entry smiles: Nc1ccc(S(=O)(=O)N2CCN(c3ncc(C(O)(C(F)(F)F)C(F)(F)F)cc3Cl)CC2)cn1
qualifier symbol: =
EC50 (µM): 6.36

entry smiles: Nc1ccc(S(=O)(=O)N2CCN(c3ncc(C(O)(C(F)(F)F)C(F)(F)F)cc3-c3ccc4sccc4c3)CC2)cn1
qualifier symbol: >
EC50 (µM): 12.5
